Catalogue of PD-L1 MFI at 33.3 nM readings, one per entry.
# TESTED_ON: huPD-L1 (Homo sapiens, UniProt Q9NZQ7)
# Sequence (Q9NZQ7 19-290): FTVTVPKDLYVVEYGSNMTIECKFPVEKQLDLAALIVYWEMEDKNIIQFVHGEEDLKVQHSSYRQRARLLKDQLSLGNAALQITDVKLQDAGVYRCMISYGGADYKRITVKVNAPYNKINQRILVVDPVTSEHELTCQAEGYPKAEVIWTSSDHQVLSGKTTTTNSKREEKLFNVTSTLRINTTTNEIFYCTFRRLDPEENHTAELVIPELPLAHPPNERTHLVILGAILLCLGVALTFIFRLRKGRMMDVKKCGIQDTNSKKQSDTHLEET
# METHOD_SUMMARY: Flow binding to CHO cells stably expressing PD-L1
# Parameters: huCTLA4 and huPD-L1, full-length mammalian surface expression constructs were generated; expressed in transfected cells; host or cells: CHO cells, lentiviral transduction, sorted to >98% purity
# EXPERIMENTAL_CONDITIONS: Table E19; CHO cells stably expressing PD-L1; 33.3 nM
PARAMETER_MEASURED: PD-L1 MFI at 33.3 nM

INSERT INTO results (molecule, parameter_measured, value) VALUES
  ('E35D/D46V/M47V/N48K/V68M (protein) VIHVTKEVKEVATLSCGHNVSVEELAQTRIYWQKDKKMVLTMMSGVVKIWPEYKNRTIFDITNNLSIMILALRPSDEGTYECVVLKYEKDAFKREHLAEVTLSVKAD', 'PD-L1 MFI at 33.3 nM', 25940),
  ('M47V/N48K/K89N (protein) VIHVTKEVKEVATLSCGHNVSVEELAQTRIYWQKEKKMVLTMMSGDVKIWPEYKNRTIFDITNNLSIVILALRPSDEGTYECVVLKYENDAFKREHLAEVTLSVKAD', 'PD-L1 MFI at 33.3 nM', 2366),
  ('E35D/N48K (protein) VIHVTKEVKEVATLSCGHNVSVEELAQTRIYWQKDKKMVLTMMSGDMKIWPEYKNRTIFDITNNLSIVILALRPSDEGTYECVVLKYEKDAFKREHLAEVTLSVKAD', 'PD-L1 MFI at 33.3 nM', 6545),
  ('E35D/V68M/L85Q (protein) VIHVTKEVKEVATLSCGHNVSVEELAQTRIYWQKDKKMVLTMMSGDMNIWPEYKNRTIFDITNNLSIMILALRPSDEGTYECVVQKYEKDAFKREHLAEVTLSVKAD', 'PD-L1 MFI at 33.3 nM', 5971);
